Each entry below carries its reported CC50.
Tested on: HI-HeLa cells
PROTOCOL TEXT: Cytotoxicity in mock-infected HI-HeLa cells (XTT, antirhinoviral assay)
Assay type: cell-based
SETUP CONDITIONS: mock-infected HI-HeLa cells; line for HRV serotype 2; read-out: CC50
ENDPOINT: CC50

>>> print(df.to_string())
                                    molecule  assayed_system  endpoint    result
 0  CCOC(=O)/C=C/C(CCC(N)=O)NC(=O)C(CC(=O)C(NC(=O)SC1CCCC1)C(C)C)Cc1ccc(C(F)(F)F)cc1 (stereo not drawn) [Compound 16]   HI-HeLa cells      CC50    > 3 µM
 1  CCOC(=O)/C=C/C(CCC(N)=O)NC(=O)C(CC(=O)C(NC(=O)SC1CCCC1)C(C)C)Cc1ccccc1 (stereo not drawn) [Compound 7]   HI-HeLa cells      CC50   > 10 µM
 2  CCOC(=O)/C=C/C(CCC(N)=O)NC(=O)C(CC(=O)C(NC(=O)OC1CCCC1)C(C)C)Cc1ccc(C)cc1 (stereo not drawn) [Compound 20]   HI-HeLa cells      CC50    > 3 µM
 3  CCOC(=O)/C=C/C(CCC(N)=O)NC(=O)C(CC(=O)C(NC(=O)SC1CCCC1)C(C)C)Cc1ccc(C)cc1 (stereo not drawn) [Compound 11]   HI-HeLa cells      CC50    > 3 µM
 4  CCOC(=O)/C=C/C(CCC(N)=O)NC(=O)C(CC(=O)C(CC(C)C)NC(=O)SC1CCCC1)Cc1ccc(C)cc1 (stereo not drawn) [Compound 21]   HI-HeLa cells      CC50   > 10 µM
 5  CC(=O)N1CC/C(=C\C(CCC(N)=O)NC(=O)C(CC(=O)C(NC(=O)SC2CCCC2)C(C)C)Cc2ccc(C)cc2)C1=O (stereo not drawn) [Compound 17]   HI-HeLa cells      CC50   > 10 µM
 6  CCOC(=O)/C=C/C(CCC(N)=O)NC(=O)C(CC(=O)C(NC(=O)SC1CCCC1)C(C)C)Cc1ccc(F)cc1 (stereo not drawn) [Compound 14]   HI-HeLa cells      CC50   > 10 µM
 7  CCOC(=O)/C=C/[C@H](CCC(N)=O)NC(=O)[C@@H](CC(=O)[C@@H](NC(=O)OC1CCCC1)C(C)C)Cc1ccc(F)cc1 [Compound 25]   HI-HeLa cells      CC50    > 3 µM
 8  CCOC(=O)/C=C/C(CCC(N)=O)NC(=O)C(CC(=O)C(NC(=O)SC1CCCC1)C(C)(C)C)Cc1ccccc1 (stereo not drawn) [Compound 22]   HI-HeLa cells      CC50   > 32 µM
 9  CCOC(=O)/C=C/C(CCC(N)=O)NC(=O)C(CC(=O)C(CC(C)C)NC1CCCC1)Cc1ccc(F)cc1 (stereo not drawn) [Compound 19]   HI-HeLa cells      CC50    > 3 µM
10  CCOC(=O)/C=C/[C@H](CCC(N)=O)NC(=O)[C@@H](CC(=O)[C@H](CC(C)C)NC(=O)SCC)Cc1ccccc1 [Compound 2]   HI-HeLa cells      CC50  > 320 µM
11  CCOC(=O)/C=C/[C@H](CCC(N)=O)NC(=O)[C@@H](CC(=O)[C@@H](NC(=O)SCC)C(C)C)Cc1ccc(C)cc1 [Compound 10]   HI-HeLa cells      CC50    > 1 µM
